Data provenance: ChEMBL document CHEMBL1142383

- procedure.summary: Bioavailability in rat at 2 umol/kg, po
- Format: ADME, organism-based
- assay.conditions: in vivo
measurement.type: bioavailability (%)
Answer format: numeric, % implied, no suffix.

Request: Input "O=C(c1ccc(Br)cc1NS(=O)(=O)c1cccc2nccnc12)N1CCCCC1" , output reported bioavailability.
Response: 50

====

Measured Ki of individual entries
Target chain: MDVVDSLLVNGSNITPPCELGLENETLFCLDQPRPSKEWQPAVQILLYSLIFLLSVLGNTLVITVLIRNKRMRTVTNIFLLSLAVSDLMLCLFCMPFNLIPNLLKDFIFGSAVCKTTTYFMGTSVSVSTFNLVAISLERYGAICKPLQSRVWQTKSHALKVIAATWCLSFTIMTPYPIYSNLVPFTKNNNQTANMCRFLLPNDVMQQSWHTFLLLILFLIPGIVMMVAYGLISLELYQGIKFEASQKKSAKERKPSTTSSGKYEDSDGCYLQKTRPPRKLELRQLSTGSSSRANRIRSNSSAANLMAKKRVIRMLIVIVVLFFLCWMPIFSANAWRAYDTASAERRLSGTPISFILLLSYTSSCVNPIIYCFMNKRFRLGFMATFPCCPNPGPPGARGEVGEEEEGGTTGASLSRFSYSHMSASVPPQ

Request: State its Ki for this compound: "Cn1nc2cccc(S(=O)(=O)Nc3cc(Br)ccc3C(=O)N3CCCCC3)c2n1"
Response: > 10 µM

Request: Hello, please tell me recorded Ki for this one: "Cn1nnc2c(S(=O)(=O)Nc3cc(Br)ccc3C(=O)N3CCCCC3)cccc21"
Response: > 10 µM
